fold reactivity over background: recorded values
- Tested Target: hemagglutinin (HA) of influenza B virus B/Malaysia (Victoria lineage) (influenza B virus B/Malaysia/04 …)
- Assay Protocol: recombinant HA ELISA (AttoPhos fluorescence, mean of triplicates)

Binder: TRL841 (antibody, V domains shown) VH: QVQLVESGGGVVQPGRSLRLSCAASGFTFSSYGIYWVRQAPGKGLEWVAFISYDEINKFYADSVKGRFTISRDNSKNTVFLQMNSLRDEDTAVYYCAKPLRGSYRYFDLWGRGTVVTVSS VL: DIVMTQPPATLSVSPGERATLSCGASQGLGSNLAWYQQKPGQAPRLLIYAASTRATGITARFSGSGSGTEFTLTINSLQSEDFALYYCQQYTYWPLTFGGGTKVEIKR
fold reactivity over background: 25.6 fold over background

Binder: TRL846 (antibody, V domains shown) VH: QVQLVESGGGLVQPGGSLRLSCTVSGFTFNSYAMNWVRQAPGKGLEWVSGIRGSGENTYYAETVKGRFTISRDNSKNTLYLEMNSLRAEDTAVYYCARKWGRMTVFGVATDQLYYFDYWGQGTLVTVSS VL: DITLTQSPATLSVSPGERATLSCRASQSVSSNLAWYQQKPGQAPRLLIYGASNRATDIPARFSGSGSGTEFTLTISSLQSEDFAVYYCQQFNDWPFLTFGGGTKVEIKR
fold reactivity over background: 25.6 fold over background

Binder: TRL809 (antibody, V domains shown) VH: QVQLLESGGGVVRPGRSLRLACAGSGFTFSAYAMHWVRQAPGKGLEWVAHTSYDGRDSYYVDSVKGRFTISRDDSKNTLYLQMNSLRPEDTAVYYCAKVGPYTGYDDYNYYGMDVWGHGTTVTVSS VL: DIVLTQSPVSLAVSLGESATVNCKSSQSVLSNSKNLNYLAWYQHKPGQPPKLLIYWASTRESGVPDRFSGSGSGTDFTLTISSLQAEDVAVYYCQQHYSIPLTFGPGTKVDIKR
fold reactivity over background: 25.6 fold over background
